biological target: T1, lactate dehydrogenase (LDH); experiment: phage ELISA
T1 construct: Coated at 500 ng/well as non-specific target; also called LDH polypeptide
measurementLabel: LDH (OD)

                                     binder  measurementlabel  recordedvalue
0  SRGMAEAQFSAWPVLAVFPLAAAGAPVPYPDPLEPRP [DGI-2-20F-PP-H8]          LDH (OD)            0.9
1  RTLFINGGCCGKGSGGGRPLAAAGAPVPYPDPLEPRP [DGI-2-20F-PP-G1]          LDH (OD)              1
2  LLLPVRWRDAQPRSLLMEWIAAAGAPVPYPDPLEPRP [DGI-2-20F-PP-F8]          LDH (OD)            1.1
3  VRAVYSRDAYNEVGRWMRVGIAAAGAPVPYPDPLEPRP [DGI-2-20F-PP-D9]          LDH (OD)              1
4  VGQSSGDARPLANLFVFPFVAAAGAPVPYPDPLEPRP [DGI-2-20F-PP-F12]          LDH (OD)            0.9
5  SVTISTSCRTGCPAGYLRRDAAAGAPVPYPDPLEPRP [DGI-2-20F-PP-D2]          LDH (OD)            0.7
